Experiment: Clearance in Wistar rat at 250 mg/kg, iv by HPLC analysis
Format: ADME, organism-based
Parameters: dose 250 mg/kg, route intravenous
Settings: in vivo
readout-kind: clearance (mL/min)

{"structure-string": "COc1ccc(-c2cc(=O)c3c(OC)cc(OC)cc3o2)cc1", "quantitative-result": 0.105}

a. COc1cc(OC)c2c(=O)cc(-c3ccccc3)oc2c1
b. COc1cc(OC)c2c(=O)c(OC)c(-c3ccc(OC)c(OC)c3)oc2c1
Input pair: a , b . Output: entry with lower clearance. Field: selected label. Fill in the label of the entry you choose.
a
(a: 0.133 mL/min, b: 0.359 mL/min)

---

Experiment: AUC in Wistar rat at 250 mg/kg, iv by HPLC analysis
Assay type: ADME, organism-based
Design: dose 250 mg/kg, route intravenous
Conditions: plasma
readout-kind: AUC (µg·h/mL)

{"molecule": "COc1ccc(-c2cc(=O)c3c(OC)cc(OC)cc3o2)cc1 [TRIMETHYLAPIGENIN]", "quantitative-result": 276}

a. COc1cc(OC)c2c(=O)cc(-c3ccccc3)oc2c1 [CHRYSIN DIMETHYL ETHER]
b. COc1cc(OC)c2c(=O)c(OC)c(-c3ccc(OC)c(OC)c3)oc2c1
Input pair: a , b . Output: entry with lower AUC. Field: selected label. Fill in the label of the entry you choose.
b
(b: 76.8 µg·h/mL, a: 233 µg·h/mL)

---

Assay: Cmax in Wistar rat testes at 750 mg/kg, po by LC-MS/MS analysis
Assay type: ADME, organism-based, Testis
Design: dose 750 mg/kg, route oral
readout-kind: Cmax (ng/g)

{"structure-string": "COc1cc(OC)c2c(=O)cc(-c3ccccc3)oc2c1", "unit-label": "ng/g", "Cmax": 910}

P. COc1ccc(-c2cc(=O)c3c(OC)cc(OC)cc3o2)cc1
Q. COc1cc(OC)c2c(=O)c(OC)c(-c3ccc(OC)c(OC)c3)oc2c1
Input pair: P , Q . Output: entry with lower Cmax. Field: selected label. Fill in the label of the entry you choose.
Q
(Q: 500 ng/g, P: 1100 ng/g)
